Origin of values: PubChem BioAssay (NCI)

test system: K-562 leukemia; test: NCI-60 one-dose screen, 48 h; conditions: 10 µM unless noted
About 83,000 compounds went through this panel and 20% of them were active in at least one assay; those are over-represented in the sample as a whole. Active and inactive are the calls of the source. Rule for the calls: active = growth percent below 10; inactive = the rest.
Your response should consist of one outcome taken from active, inactive

CC1(CF)NC(=O)NC1=O (stereo unspecified) | inactive

Inquiry: Please share the test call associated with Clc1ccc(SSC(Cl)(Cl)Cl)cc1 .
Reply text: inactive

Inquiry: Please share the test call associated with COc1ccc(C2=NN(c3ccccc3)C(c3sc(N(CCCl)CCCl)nc3Cl)C2)cc1 (stereo unspecified) .
Reply text: inactive

Inquiry: Please share the test call associated with CC(C)(O)/C=C/C(=O)[C@](C)(O)[C@H]1[C@H](O)C[C@@]2(C)[C@@H]3CC=C4[C@@H](C=C(O)C(=O)C4(C)C)[C@]3(C)C(=O)C[C@]12C .
Reply text: active

Inquiry: Please share the test call associated with O=C(O)C1[O][Sb][O]C1C(=O)O (stereo unspecified) .
Reply text: inactive

Inquiry: Please share the test call associated with CCC(CC)(c1ccccc1)C(OC(N)=O)c1ccccc1 (stereo unspecified) .
Reply text: inactive

Inquiry: Please share the test call associated with O=C(CF)N(O)c1ccc(/C=C/c2ccccc2)cc1 .
Reply text: inactive

Inquiry: Please share the test call associated with O=C(NCCNC(=O)c1ccc([As](O)O)cc1)c1ccc([As](O)O)cc1 .
Reply text: inactive

###

tested on: RXF 393 renal; assay: NCI-60 one-dose screen, 48 h (100 = growth as untreated, 0 = no growth, -100 = all killed); conditions: 10 µM unless noted
The panel holds about 83,000 compounds, 20% with a hit somewhere; the sample as a whole holds those more often.
Hi, to clarify the labels: criterion met covers growth from 20% upward, criterion not met covers anything below 20%.

CC12CCC3C(CC=C4CC(O)CCC43C)C1C/C(=C\N1CCOCC1)C2=O (stereo not drawn) | criterion met
CC1(C)CC(=O)CC(C)(C)N1N=O | criterion met
CC(=O)O[C@H]1C[C@H](O[C@H]2[C@@H](O)C[C@H](O[C@H]3[C@@H](O)C[C@H](O[C@H]4CC[C@@]5(C)C(CCC6C5C[C@@H](O)[C@]5(C)[C@@H](C7=CC(=O)OC7)CC[C@]65O)C4)O[C@@H]3C)O[C@@H]2C)O[C@H](C)[C@H]1O[C@@H]1O[C@H](CO)[C@@H](O)[C@H](O)[C@H]1O (stereo partly drawn) | criterion not met
C[As](=O)(O)c1ccc(C(=O)O)cc1 | criterion met
COc1ccc(OC)c(/C=C(/C)[N+](=O)[O-])c1 | criterion not met
CC(C)(O)/C=C/C(=O)[C@](C)(O)[C@H]1[C@H](O)C[C@@]2(C)[C@@H]3CC=C4[C@@H](C=C(O)C(=O)C4(C)C)[C@]3(C)C(=O)C[C@]12C | criterion not met
COc1cc[c]([Hg][Cl])cc1 | criterion not met
Nc1c(Br)cc([N+](=O)[O-])cc1[N+](=O)[O-] | criterion met
COc1ccc(/C=C\c2cc(OC)c(OC)c(OC)c2)cc1N/C=C\C(=O)c1c[nH]c2ccccc12 | criterion met
Oc1ccccc1OB(Oc1ccccc1O)N(CCCl)CCCl | criterion met

Inquiry: Exam item: decide whether the reported growth for N#CC1=C(N)Oc2cc3c(cc2C1c1cccs1)OCO3 (stereo not drawn) is at least 20%.
Reply text: criterion not met

Inquiry: Exam item: decide whether the reported growth for CC1COC(=O)C1 (stereo not drawn) is at least 20%.
Reply text: criterion met
